measured.on: [Pyruvate dehydrogenase (acetyl-transferring)] kinase isozyme 4, mitochondrial (Homo sapiens, UniProt Q16654)
Sequence (Q16654 whole entry): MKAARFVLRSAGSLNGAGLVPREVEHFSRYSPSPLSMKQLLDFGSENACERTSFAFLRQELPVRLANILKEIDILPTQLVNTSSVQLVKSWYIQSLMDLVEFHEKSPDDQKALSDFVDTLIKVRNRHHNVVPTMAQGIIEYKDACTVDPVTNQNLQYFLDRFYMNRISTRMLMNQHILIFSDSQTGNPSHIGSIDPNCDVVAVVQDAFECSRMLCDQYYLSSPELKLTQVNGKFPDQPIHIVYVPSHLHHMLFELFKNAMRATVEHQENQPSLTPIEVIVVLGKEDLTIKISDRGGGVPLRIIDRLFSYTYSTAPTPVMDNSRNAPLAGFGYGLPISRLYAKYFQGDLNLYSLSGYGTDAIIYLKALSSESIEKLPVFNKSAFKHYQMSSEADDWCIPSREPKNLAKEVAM
test: Inhibition of recombinant human PDK4 in presence of E1 protein incubated for 10 mins by titration assay

cpd.smiles	IC50
NC(=O)C[C@H](N)C(=O)N1CCC(Nc2ccc3c(c2)CN(S(=O)(=O)c2ccc(O)cc2O)C3)CC1	284 nM

---

test: Tmax in CD1 mouse muscle at 70 mg/kg, ip by LC-MS/MS analysis
Type: ADME, organism-based, Muscle tissue

cpd.smiles	result.unit	Tmax
O=S(=O)(c1ccc(O)cc1O)N1Cc2cc(O)cc(O)c2C1	min	30

---

test: Terminal half life in CD1 mouse muscle at 70 mg/kg, ip by LC-MS/MS analysis
Assay type: ADME, organism-based, Muscle tissue
measurement.parameters: read-out: beta t1/2

cpd.smiles	half-life [h]
O=S(=O)(c1ccc(O)cc1O)N1Cc2cc(O)cc(O)c2C1	8.57

---

measured.on: [Pyruvate dehydrogenase (acetyl-transferring)] kinase isozyme 1, mitochondrial (Homo sapiens)
test: Inhibition of recombinant human PDK1 in presence of E1 protein and PDC core E2/E3BP incubated for 10 mins by titration assay
pIC50: −log10 of the molar value.

cpd.smiles	pIC50
NC(=O)C[C@H](N)C(=O)N1CCC(Nc2ccc3c(c2)CN(S(=O)(=O)c2ccc(O)cc2O)C3)CC1	5.69

---

measured.on: [Pyruvate dehydrogenase (acetyl-transferring)] kinase isozyme 2, mitochondrial (Homo sapiens, UniProt Q15119)
test: Inhibition of N-terminal His6-SUMO tagged recombinant human PDK2 using [32P]-gamma-ATP assessed as decrease in incorporation of radioactivity into E1 protein incubated for 2 mins
quantity: log10 IC50 (log10 of the value in nM)

compound	log10 IC50
NCCCC[C@H](N)C(=O)N1CCC(Nc2ccc3c(c2)CN(S(=O)(=O)c2ccc(O)cc2O)C3)CC1	2.76
NC(=O)C[C@H](N)C(=O)N1CCCN(c2ccc3c(c2)CN(S(=O)(=O)c2ccc(O)cc2O)C3)CC1	3.18
O=C(O)CCCCCCCC(=O)N1CCC(Nc2ccc3c(c2)CN(S(=O)(=O)c2ccc(O)cc2O)C3)CC1	2.80
O=S(=O)(c1ccc(O)cc1O)N1Cc2cc(O)cc(O)c2C1	2.66
O=C(O)CCCCC(=O)N1CCC(Nc2ccc3c(c2)CN(S(=O)(=O)c2ccc(O)cc2O)C3)CC1	3.21
O=S(=O)(c1ccc(O)cc1O)N1Cc2ccc(NC3CCCCC3)cc2C1	3.08
NC(=O)CC[C@H](N)C(=O)N1CCC(Nc2ccc3c(c2)CN(S(=O)(=O)c2ccc(O)cc2O)C3)CC1	1.86
Nc1ccc2c(c1)CN(S(=O)(=O)c1ccc(O)cc1O)C2	3.07
O=S(=O)(c1ccc(O)cc1O)N1Cc2ccc(NC3CCN(CC(O)CO)CC3)cc2C1 (centres undefined)	2.19

---

measured.on: [Pyruvate dehydrogenase (acetyl-transferring)] kinase isozyme 1, mitochondrial (Homo sapiens, UniProt Q15118)
Sequence (Q15118 whole entry): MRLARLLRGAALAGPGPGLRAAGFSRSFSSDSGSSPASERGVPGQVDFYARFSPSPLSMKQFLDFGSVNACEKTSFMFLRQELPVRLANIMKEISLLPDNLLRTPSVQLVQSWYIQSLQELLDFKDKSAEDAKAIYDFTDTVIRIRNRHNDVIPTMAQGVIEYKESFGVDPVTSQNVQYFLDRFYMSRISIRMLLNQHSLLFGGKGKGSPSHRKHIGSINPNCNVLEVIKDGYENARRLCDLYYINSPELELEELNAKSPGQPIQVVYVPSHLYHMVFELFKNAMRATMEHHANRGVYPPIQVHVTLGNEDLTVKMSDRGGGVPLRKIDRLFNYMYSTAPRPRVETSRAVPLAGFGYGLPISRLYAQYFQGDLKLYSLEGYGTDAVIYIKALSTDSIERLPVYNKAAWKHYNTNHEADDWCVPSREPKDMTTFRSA
test: Inhibition of recombinant human PDK1 in presence of E1 protein incubated for 10 mins by titration assay
pIC50: −log10 of the molar value.
quantity: pIC50

cpd.smiles	experimental.result
NC(=O)C[C@H](N)C(=O)N1CCC(Nc2ccc3c(c2)CN(S(=O)(=O)c2ccc(O)cc2O)C3)CC1	5.60

---

measured.on: [Pyruvate dehydrogenase (acetyl-transferring)] kinase isozyme 2, mitochondrial (Homo sapiens, UniProt Q15119)
test: Inhibition of N-terminal His6-SUMO tagged recombinant human PDK2 in presence of E1 protein and PDC core E2/E3BP incubated for 10 mins by titration assay
pIC50: −log10 of the molar value.
quantity: pIC50

cpd.smiles	quantity	experimental.result
NC(=O)C[C@H](N)C(=O)N1CCC(Nc2ccc3c(c2)CN(S(=O)(=O)c2ccc(O)cc2O)C3)CC1	pIC50	7.09

---

test: Apparent clearance in CD1 mouse plasma at 70 mg/kg, ip by LC-MS/MS analysis
Assay type: ADME, organism-based
quantity: CL/F

cpd.smiles	experimental.result
O=S(=O)(c1ccc(O)cc1O)N1Cc2cc(O)cc(O)c2C1	1.39 mL/min

---

test: Tmax in CD1 mouse muscle at 30 mg/kg, ip by LC-MS/MS analysis
Assay type: ADME, organism-based, Muscle tissue
quantity: Tmax (min)

cpd.smiles	result.unit	experimental.result
NC(=O)C[C@H](N)C(=O)N1CCC(Nc2ccc3c(c2)CN(S(=O)(=O)c2ccc(O)cc2O)C3)CC1	min	10

---

measured.on: [Pyruvate dehydrogenase (acetyl-transferring)] kinase isozyme 2, mitochondrial (Homo sapiens, UniProt Q15119)
test: Inhibition of N-terminal His6-SUMO tagged recombinant human PDK2 using [32P]-gamma-ATP assessed as decrease in incorporation of radioactivity into E1 protein incubated for 2 mins
Records here are stratified by IC50; strata: category 1: < 200 nM; category 2: ≥ 200 nM and < 1000 nM; category 3: ≥ 1000 nM

compound	label
O=C(O)CC(=O)N1CCC(Nc2ccc3c(c2)CN(S(=O)(=O)c2ccc(O)cc2O)C3)CC1	category 3
NC(=O)C[C@H](N)C(=O)NCCCNc1ccc2c(c1)CN(S(=O)(=O)c1ccc(O)cc1O)C2	category 1
NC(=O)C[C@H](N)C(=O)N1CC[C@@H](Nc2ccc3c(c2)CN(S(=O)(=O)c2ccc(O)cc2O)C3)C1	category 2
O=C(C1C[C@@H](O)C(O)[C@H](O)C1)N1CCC(Nc2ccc3c(c2)CN(S(=O)(=O)c2ccc(O)cc2O)C3)CC1 (some centres undefined)	category 2
NC(=O)C[C@H](N)C(=O)N1CCN(c2ccc3c(c2)CN(S(=O)(=O)c2ccc(O)cc2O)C3)CC1	category 2
O=S(=O)(c1ccc(O)cc1O)N1Cc2ccc(N3CCNCC3)cc2C1	category 3
NC(=O)C[C@H](N)C(=O)N1CC(Nc2ccc3c(c2)CN(S(=O)(=O)c2ccc(O)cc2O)C3)C1	category 1
O=S(=O)(c1ccc(O)cc1O)N1Cc2ccc(N3CCCCC3)cc2C1	category 3
O=S(=O)(c1ccc(O)cc1O)N1Cc2ccc(O)cc2C1	category 2
